tested on: KP-4 (Pancreatic) cell line; experiment: Proliferation of KP-4; type: cell-based; conditions: Homo sapiens, KP-4, read-out: IC50 in μM KP-4 (Pancreatic)
IC50 values by entry

- cpd.smiles: "CC1=C[C@H]2[C@@]3(O)[C@H](C)C[C@]4(OC(=O)[C@@H](N)CCC5CCCCC5)[C@H]([C@@H]3C=C(CO)C[C@]2(O)C1=O)C4(C)C"
  measured.quantity: "IC50"
  value.observed: "0.01 to 0.03 µM"
- cpd.smiles: "CC1=C[C@H]2[C@@]3(O)[C@H](C)C[C@]4(OC(=O)[C@@H](N)CCCc5ccccc5)[C@H]([C@@H]3C=C(CO)C[C@]2(O)C1=O)C4(C)C"
  measured.quantity: "IC50"
  value.observed: "0.1 to 0.2 µM"
- cpd.smiles: "CC1=C[C@H]2[C@@]3(O)[C@H](C)C[C@]4(OC(=O)[C@H](N)CCCCCCc5ccccc5)[C@H]([C@@H]3C=C(CO)C[C@]2(O)C1=O)C4(C)C"
  measured.quantity: "IC50"
  value.observed: "0.03 to 0.06 µM"
- cpd.smiles: "CC1=C[C@H]2[C@@]3(O)[C@H](C)C[C@]4(OC(=O)C(C)(C)C)[C@H]([C@@H]3C=C(CO)C[C@]2(O)C1=O)C4(C)C"
  measured.quantity: "IC50"
  value.observed: "0.1 to 0.2 µM"
- cpd.smiles: "CC/C=C\\C/C=C\\C/C=C\\C/C=C\\C/C=C\\C/C=C\\CCC(=O)O[C@@]12C[C@@H](C)[C@@]3(O)[C@@H](C=C(CO)C[C@]4(O)C(=O)C(C)=C[C@@H]34)[C@@H]1C2(C)C"
  measured.quantity: "IC50"
  value.observed: "0.001 to 0.01 µM"

Result for CC1=C[C@H]2[C@@]3(O)[C@H](C)C[C@]4(OC(=O)[C@@H](N)Cc5ccc(C(F)(F)F)cc5)[C@H]([C@@H]3C=C(CO)C[C@]2(O)C1=O)C4(C)C , tested on KP-4 (Pancreatic) cell line, IC50: 0.06 to 0.1 µM

Noted IC50 for CC1=C[C@H]2[C@@]3(O)[C@H](C)C[C@]4(OC(=O)[C@@H](N)CC5CCCCC5)[C@H]([C@@H]3C=C(CO)C[C@]2(O)C1=O)C4(C)C , tested on KP-4 (Pancreatic) cell line: 0.1 to 0.2 µM

// compound CC1=C[C@H]2[C@@]3(O)[C@H](C)C[C@]4(OC(=O)[C@@H](N)CCc5ccccc5)[C@H]([C@@H]3C=C(CO)C[C@]2(O)C1=O)C4(C)C , assay KP-4 (Pancreatic) cell line, IC50 value: 0.1 to 0.2 µM

Item CC1=C[C@H]2[C@@]3(O)[C@H](C)C[C@]4(OC(=O)[C@@H](N)[C@]56C[C@H]7C[C@H](C[C@H](C7)C5)C6)[C@H]([C@@H]3C=C(CO)C[C@]2(O)C1=O)C4(C)C ; assay system KP-4 (Pancreatic) cell line; IC50 reported as 0.001 to 0.01 µM

KP-4 (Pancreatic) cell line assay, compound CC1=C[C@H]2[C@@]3(O)[C@H](C)C[C@]4(OC(=O)[C@@H](N)CCCCCCc5ccccc5)[C@H]([C@@H]3C=C(CO)C[C@]2(O)C1=O)C4(C)C , recorded IC50 = 0.001 to 0.01 µM

Field IC50 (KP-4 (Pancreatic) cell line), entry CC1=C[C@H]2[C@@]3(O)[C@H](C)C[C@]4(OC(=O)[C@@H](N)C5Cc6ccccc6C5)[C@H]([C@@H]3C=C(CO)C[C@]2(O)C1=O)C4(C)C : 0.06 to 0.1 µM
